experimental_details: chemical genetic growth profiling, strain panel (AID 1159580);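 further: tested at 20 µM; growth read once vehicle control cultures reached saturation at 30 °C; 1 = growth at the plate median or of vehicle wells; lower values mean less growth of the strain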
settings: S. cerevisiae deletion strains, growth OD, locus YMR205C, strain PFK2, hits give low values
Screen size: about 5,500 compounds; about 2,000 (36%) were called active. Inconclusive results (about 18%) are left out. Some of the results follow.
measured_attribute: normalized growth

[
  {
    "molecule": "CC12CCC(OC(=O)c3ccccc3)CC1CCc1ccccc12 (configuration not stated)",
    "measured_attribute": "normalized growth",
    "val": 1.01
  },
  {
    "molecule": "C[C@H]1C(=O)CCC2[C@]3(C)CC[C@@]4(C)C5CC(C)(C)CC[C@]5(C)CC[C@]4(C)C3CC[C@@]21C (some centres not stated)",
    "measured_attribute": "normalized growth",
    "val": 1.02
  },
  {
    "molecule": "CC(=O)OC1CCC23CC1(C)CCC2C(C)(C)CC3OC(C)=O (configuration not stated)",
    "measured_attribute": "normalized growth",
    "val": 0.924
  },
  {
    "molecule": "COc1cc(Cc2cnc(N)nc2N)cc(OC)c1OC",
    "measured_attribute": "normalized growth",
    "val": 1.03
  },
  {
    "molecule": "CC12CCC(O)CC1CCc1ccccc12 (configuration not stated)",
    "measured_attribute": "normalized growth",
    "val": 0.902
  },
  {
    "molecule": "COC(=O)C[C@H]1C(C)(C)[C@@H](OC(C)=O)[C@@H]2CC3=C4CC(=O)O[C@@H](c5ccoc5)[C@]4(C)CCC3[C@@]1(C)C2=O (some centres not stated)",
    "measured_attribute": "normalized growth",
    "val": 1.02
  },
  {
    "molecule": "CO/N=C(/C(=O)NC1C(=O)N2C(C(=O)OCOC(=O)C(C)(C)C)=C(/C=C\\c3scnc3C)CSC12)c1csc(N)n1 (configuration not stated)",
    "measured_attribute": "normalized growth",
    "val": 0.99
  }
]

###

experimental_details: chemical genetic growth profiling, strain panel (AID 1159580);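 further: tested at 20 µM; growth read once vehicle control cultures reached saturation at 30 °C; 1 = growth at the plate median or of vehicle wells; lower values mean less growth of the strain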
settings: S. cerevisiae deletion strains, growth OD, locus YOR316C, strain cot1, hits give low values
In all, about 5,500 compounds went through this assay and about 2,000 (36%) were called active. Another 18% or so got no clear call; they are omitted. The list shows a part of the results.
measured_attribute: normalized growth

[
  {
    "compound_structure_string": "CN1CCN(C2=Nc3cc(Cl)ccc3Nc3ccccc32)CC1",
    "val": 1.03
  },
  {
    "compound_structure_string": "COc1ccc(/C=C/c2cc(O)cc(O[C@@H]3O[C@H](CO)[C@@H](O)[C@H](O)[C@H]3O)c2)cc1",
    "val": 0.999
  },
  {
    "compound_structure_string": "CNC(C)(C)Cc1ccccc1",
    "val": 1.01
  }
]

###

experimental_details: chemical genetic growth profiling, strain panel (AID 1159580);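 further: tested at 20 µM; growth read once vehicle control cultures reached saturation at 30 °C; 1 = growth at the plate median or of vehicle wells; lower values mean less growth of the strain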
settings: S. cerevisiae deletion strains, growth OD, locus YNL307C, strain MCK1
Hit rate of the full screen: of about 5,500 compounds, about 2,000 (36%) were called active. Not shown: some 18% with an inconclusive outcome. Rule as the data show it: active = normalized growth mostly below about 0.91 (no sharp cut-off); inconclusive = no clear call, values can overlap the other calls; inactive = mostly above about 0.92. Some of the results follow.
Outcome codes: active, inactive

[
  {
    "compound": "CCCCN(CC)c1c([N+](=O)[O-])cc(C(F)(F)F)cc1[N+](=O)[O-]",
    "answer_label": "inactive"
  },
  {
    "compound": "CC(=O)OC[C@@]1(O)C[C@@]23CCC4c5ccoc5CC[C@]4(C)C2CC[C@@H]1C3 (stereo partly drawn)",
    "answer_label": "active"
  },
  {
    "compound": "OC[C@H]1O[C@@H](Oc2ccc(O)cc2)[C@H](O)[C@@H](O)[C@@H]1O",
    "answer_label": "inactive"
  }
]
